Listing of recorded IC50 by entry.
Tested on: NCI-H1105
Assay Notes: Dose response on viability of small cell lung cancer line, resazurin assay
Format: cell-based
Particulars: NCI-H1105, 72 h treatment; read-out: IC50
Quantity: IC50 (nM)

[[record]]
compound = "CNC(=O)COc1cc2cc(Nc3nc(N4CCC(C(=O)NCCCCCCCNC(=O)C[C@@H]5N=C(c6ccc(Cl)cc6)c6c(sc(C)c6C)-n6c(C)nnc65)CC4)ncc3Cl)cc(OC)c2n(C)c1=O [JWZ-7-7]"
measurement_target = "NCI-H1105"
unit_descriptor = "nM"
observed_value = 75

[[record]]
compound = "CNC(=O)COc1cc2cc(Nc3nc(N4CCC(C(=O)N(C)C)CC4)ncc3Cl)cc(OC)c2n(C)c1=O [BI-3812]"
measurement_target = "NCI-H1105"
unit_descriptor = "nM"
observed_value = 4300

